Value source: the supplement of paper PMC7125110

B1: glmS ribozyme (parent)
chain: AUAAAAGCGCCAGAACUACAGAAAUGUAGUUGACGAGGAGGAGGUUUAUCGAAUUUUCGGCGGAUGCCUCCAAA

Variants of: B1
MEASUREMENT DESCRIPTION: KM; higher = weaker cofactor use; RNA array
DETAILS: with glucosamine-6-phosphate
EXPERIMENTAL ENDPOINT: KM (µM)

INSERT INTO measurements (mutant_designation, observed_result) VALUES
  ('A12U A42G U56A C67U', 794),
  ('C10U C70U', 777),
  ('A42U C70A', 813),
  ('G59U C71G', 817);
